target: hGLP1R (Homo sapiens); construct: expressed in transfected cells; host or cells: HEK-293 cells carrying a CRE-luciferase reporter gene; assay: hGLP1R CreLuc reporter gene assay in 0.5% and 100% plasma; type: cell-based; settings: CreLuc reporter gene assay, 100% human plasma; read-out: hGLP1R 100% hP
Sequence (P43220 24-463): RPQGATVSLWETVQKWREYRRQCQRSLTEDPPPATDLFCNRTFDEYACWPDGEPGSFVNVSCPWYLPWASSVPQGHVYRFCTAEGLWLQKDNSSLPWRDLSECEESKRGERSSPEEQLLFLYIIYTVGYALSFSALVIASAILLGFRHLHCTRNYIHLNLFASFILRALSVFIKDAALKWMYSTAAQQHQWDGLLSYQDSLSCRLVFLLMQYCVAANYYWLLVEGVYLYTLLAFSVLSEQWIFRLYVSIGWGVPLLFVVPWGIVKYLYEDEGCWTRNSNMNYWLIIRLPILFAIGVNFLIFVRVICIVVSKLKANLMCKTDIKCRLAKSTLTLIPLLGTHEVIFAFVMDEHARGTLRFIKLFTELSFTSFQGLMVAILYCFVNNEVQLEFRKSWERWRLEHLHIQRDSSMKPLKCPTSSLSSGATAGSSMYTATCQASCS
Starred links: 1 amine or outer side, 2 acyl side, 3 side chain; linkers in the order of their positions; H or OH if unused. Non-standard residues stand in square brackets, D forms with d. Groups on a side chain read outwards from the residue. No end group written: not given here. *: point of attachment. C20 diacid = O=C(O)CCCCCCCCCCCCCCCCCCC(=O)*; C18 diacid = O=C(O)CCCCCCCCCCCCCCCCC(=O)*; γGlu = O=C(O)[C@H](CCC(=O)[*:2])N[*:1]; AEEA = NCCOCCOCC(=O)O; Aib = CC(C)(N)C(=O)O
quantity_kind: EC50 (nM)
The answer is to be given in nM; state only the numeric part.

query: So what does the record say about EC50 for H-Y[Aib]EGTFTSDYSI[Aib]LEKQAQ[Aib]EFVQWLIK([γGlu-γGlu-γGlu-γGlu-C18 diacid])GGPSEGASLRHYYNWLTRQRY-NH2 [Compound 202] ?
result: 10.4

query: Name the recorded EC50 for Y[Aib]EGTFTSDYSI[Aib]LEKQAQ[Aib]AFVQWLIK([γGlu-γGlu-γGlu-γGlu-γGlu-γGlu-C20 diacid])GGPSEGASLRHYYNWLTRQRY-NH2 [Compound 223] .
result: 4.39

query: What value of EC50 has been recorded for this entry: Y[Aib]EGTFTSDYSI[Aib]LEKQAQ[Aib]AFVQWLIK([AEEA-AEEA-γGlu-γGlu-γGlu-C18 diacid])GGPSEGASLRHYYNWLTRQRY-NH2 [Compound 266]
result: 2.21

query: Recorded EC50 for H-Y[Aib]EGTFTSDYSI[Aib]LEKQAQ[Aib]AFVQWLIK([γGlu-γGlu-γGlu-γGlu-γGlu-C18 diacid])GGPESPASLRHYYNWLTRQRY-NH2 [Compound 12] , please?
result: 4.76

query: Which EC50 value belongs to H-Y[Aib]EGTFTSDYSI[Aib]LEKQAQ[Aib]AFVQWLIK([AEEA-AEEA-γGlu-γGlu-γGlu-γGlu-C18 diacid])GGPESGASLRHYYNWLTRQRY-NH2 [Compound 58] ?
result: 2

----------
Target: hNPY2R (Homo sapiens, UniProt P49146)
Construct: expressed in transfected cells; host or cells: HEK-293 cells carrying a CRE-luciferase reporter gene
Sequence (P49146 whole entry): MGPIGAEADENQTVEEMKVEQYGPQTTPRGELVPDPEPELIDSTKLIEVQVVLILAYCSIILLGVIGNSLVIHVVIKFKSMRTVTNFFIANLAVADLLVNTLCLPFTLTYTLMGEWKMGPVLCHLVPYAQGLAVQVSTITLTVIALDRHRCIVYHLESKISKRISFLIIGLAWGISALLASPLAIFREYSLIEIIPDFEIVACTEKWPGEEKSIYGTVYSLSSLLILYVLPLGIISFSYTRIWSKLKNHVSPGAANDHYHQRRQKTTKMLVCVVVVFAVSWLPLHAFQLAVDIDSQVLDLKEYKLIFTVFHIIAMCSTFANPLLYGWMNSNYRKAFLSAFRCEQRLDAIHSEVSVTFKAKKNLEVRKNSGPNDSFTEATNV
Experiment: hNPY2R CreLuc reporter gene assay in 0.5% and 100% plasma
Assay type: cell-based
Settings: CreLuc reporter gene assay, 0.5% human plasma; read-out: hNPY2R 0.5% hP
Description: Example 1: hGLPR/hGIPR/hNPY2R CreLuc Assay in 0.5% and 100% Plasma CHO and HEK-293 recombinant cell lines express a luciferase reporter gene under control of the cAMP responsive element (CRE). […] Following incubation, assay plates are equilibrated to room temperature, followed by addition of 25 μl of Bright-GIo™ Luciferase reagent, incubation at room temperature for 10 minutes and analysis of luminescence (Envision Reader). […]
Starred links: 1 amine or outer side, 2 acyl side, 3 side chain; linkers in the order of their positions; H or OH if unused. Non-standard residues stand in square brackets, D forms with d. Groups on a side chain read outwards from the residue. *: point of attachment. C20 diacid = O=C(O)CCCCCCCCCCCCCCCCCCC(=O)*; C18 diacid = O=C(O)CCCCCCCCCCCCCCCCC(=O)*; γGlu = O=C(O)[C@H](CCC(=O)[*:2])N[*:1]; εLys = N[C@@H](CCCCN[*:1])C(=O)[*:2]; AEEA = NCCOCCOCC(=O)O; Aib = CC(C)(N)C(=O)O
quantity_kind: EC50 (nM)
Answer with a number only, understood to be in nM.

query: Name the reported EC50 value associated with the substance H-Y[Aib]EGTFTSDYSI[Aib]LEKQAQ[Aib]AFVQWLIK([AEEA-AEEA-γGlu-γGlu-γGlu-γGlu-C20 diacid])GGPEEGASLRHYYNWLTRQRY-NH2 [Compound 193]
result: 13.6

query: Recorded EC50 for H-Y[Aib]EGTFTSDYSI[Aib]LEKQAQ[Aib]AFVEWLIK([εLys-γGlu-γGlu-γGlu-γGlu-γGlu-γGlu-C20 diacid])GGPSSGASLRHYINWLTRQRY-NH2 [Compound 106] , please?
result: 20.5

query: Reported EC50, substance H-Y[Aib]EGTFTSDYSI[Aib]LEKQAQ[Aib]EFVEWLIK([γGlu-γGlu-γGlu-γGlu-C18 diacid])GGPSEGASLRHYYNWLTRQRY-NH2 [Compound 276] : ____
result: 20.7

query: Request the reported EC50 associated with H-Y[Aib]EGTFTSDYSI[Aib]LEKQAQ[Aib]AFVQWLIK([Glu-Glu-Glu-Glu-C18 diacid])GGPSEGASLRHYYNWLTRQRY-NH2 [Compound 281]
result: 23

query: Requested field: EC50. Item: H-Y[Aib]EGTFTSDYSI[Aib]LEKQAQ[Aib]AFVQWLIK([εLys-γGlu-γGlu-γGlu-γGlu-γGlu-γGlu-C18 diacid])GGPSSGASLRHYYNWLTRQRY-NH2 [Compound 170]
result: 19.2
